test system: 7G8; assay: qHTS profiling for inhibitors of Plasmodium falciparum proliferation (AID 504749); further: nearly all actives have a fitted effect of over 60% in size; further: potency means the concentration at half of the fitted maximal effect; conditions: P. falciparum in erythrocytes, SYBR Green DNA, 72 h; series mostly up to 28.7 µM
Results filed as inconclusive are left out. Active and inactive are the calls of the source. The call rests on the fitted dose curve; in most records, active means well fitted inhibition curve with a large enough effect; inconclusive means small, poorly fitted or top-dose-only effect; inactive means flat fitted curve, though single readings scatter.
observable: Potency

Before answering, review these 8 worked examples.
CCN(CC)CCOC(=O)c1ccc(N)cc1: inactive
O=c1[nH]cnc2c1ncn2[C@H]1CC[C@@H](CO)O1: 10 µM (active)
NC(N)=Nc1nc(CSCC/C(N)=N/S(N)(=O)=O)cs1: inactive
C[N+](C)(C)CCCCCC[N+](C)(C)C: inactive
CCCCC1C(=O)N(c2ccccc2)N(c2ccccc2)C1=O: inactive
CCCCCN(C)CCC(O)(P(=O)(O)O)P(=O)(O)O: inactive
COc1ccccc1N1CCN(CCCNc2cc(=O)n(C)c(=O)n2C)CC1: inactive
O=C(NCCN1CCOCC1)c1ccc(Cl)cc1: inactive

// moving on: another record for Potency
Challenge: Consider the compound `O=C1NCC2(CCN(CCc3ccccc3)CC2)O1` . State its measured Potency.
Response given: inactive
